Every entry's value here was drawn from patent US20130157261A1.

test system: U87 cells; test: Fpg-ddTUNEL assay (oxidized/acylated DNA bases), with or without NaBH4 reduction; type: cell-based, human; settings: U87 cells following treatment, nominal path length of 6 μm; control 0.9
Classify by measured Fpg-ddTUNEL: approximate concentration of the probe in the cells: y if it is equal to or exceeds 5 µM, n if it is smaller.

Example results:
OO [H2O2, hydrogen peroxide] : n
CCc1c2c(nc3ccc(OC(=O)N4CCC(N5CCCCC5)CC4)cc13)-c1cc3c(c(=O)n1C2)COC(=O)[C@]3(O)CC [Irinotecan] : n
Cn1nnc2c(C(N)=O)ncn2c1=O [Temozolomide] : y
C[n+]1ccc(-c2cc[n+](C)cc2)cc1 [Paraquat] : y

Switching to the query record.
[Q] Threshold query (Fpg-ddTUNEL: approximate concentration of the probe in the cells >= 5 µM) on O=NN(CCCl)C(=O)NCCCl [Carmustine, N,N′-bis(2-chloroethyl)-N-nitroso-urea]
[A] y
